assay: Caco-2 assay (permeability PappAB, PappBA, efflux ratio); type: in vitro ADME; conditions: human, Caco-2; efflux ratio PappBA/PappAB; 10 μM test compound, pH 7.4; read-out: Caco ER
RECORDED_METRIC: efflux ratio at 90 min, 10 μM

- SMILES_DATA: "C[C@H](Oc1cc(N2CCN(C)C3(COC3)C2)nc(-c2noc3c2CCC[C@@]32CCCc3sc(N)c(C#N)c32)n1)[C@@H]1C[C@@H](F)CN1C"
  efflux ratio at 90 min, 10 μM: 3.3

I. C[C@H](Oc1cc(N2CCNC(C)(C)C2)nc(-c2noc3c2CCC[C@@]32CCCc3sc(N)c(C#N)c32)n1)[C@@H]1CCCN1C
II. C[C@H](Oc1cc(N2CCNC3(COC3)C2)nc(-c2noc3c2CCC[C@@]32CCCc3sc(N)c(C#N)c32)n1)[C@@H]1C[C@@H](F)CN1C
Asked: Hi there! Just curious which has the higher efflux ratio at 90 min, 10 μM between I and II . Kindly give the label for the entry you pick.
Given back: I
(I: 76.6, II: 11.6)

* * *

system: LOVO cells; experiment: LOVO CTG proliferation assay (120 h) (CRC, G13D); assay type: cell-based; conditions: Homo sapiens, CTG 120 h
RECORDED_METRIC: IC50 (nM)

Take a look at these entries with their results.
- SMILES_DATA: "C[C@H](Oc1cc(-n2ccsc2=O)nc(-c2noc3c2CCC[C@@]32CCCc3sc(N)c(C#N)c32)n1)[C@@H]1CCCN1C"
  IC50, nM: 51
- SMILES_DATA: "CNC(=O)c1ccn(-c2cc(O[C@@H](C)[C@@H]3CCCN3C)nc(-c3noc4c3CCC[C@@]43CCCc4sc(N)c(C#N)c43)n2)n1"
  IC50, nM: 158
- SMILES_DATA: "CC(C)NC(=O)Cc1ccn(-c2cc(O[C@@H](C)[C@@H]3CCCN3C)nc(-c3noc4c3CCC[C@@]43CCCc4sc(N)c(C#N)c43)n2)n1"
  IC50, nM: 38
- SMILES_DATA: "C[C@H](Oc1cc(-n2cc3c(n2)CCN(C)C3)nc(-c2noc3c2CCC[C@@]32CCCc3sc(N)c(C#N)c32)n1)[C@@H]1CCCN1C"
  IC50, nM: 284
- SMILES_DATA: "C[C@H](Oc1cc(N2CCNC3(CC3)C2)nc(-c2noc3c2CCC[C@@]32CCCc3sc(N)c(C#N)c32)n1)[C@@H]1C[C@@H](F)CN1C"
  IC50, nM: 303

P. CCN1CCN(c2cc(O[C@@H](C)[C@@H]3C[C@@H](F)CN3C)nc(-c3noc4c3CCC[C@@]43CCCc4sc(N)c(C#N)c43)n2)CC12CC2
Q. C[C@H](Oc1cc(N2Cc3cnn(C)c3C2)nc(-c2onc3c2CCC[C@@]32CCCc3sc(N)c(C#N)c32)n1)[C@@H]1CCCN1C
Asked: In terms of reported IC50, does P or Q have the smaller number? Kindly give the label for the entry you pick.
Given back: Q

* * *

biological target: KRAS (G12V)::SOS1 (Homo sapiens (Human), UniProt P01116, C118S/G12V); assay: KRAS::SOS1 AlphaScreen binding assay, KRAS G12V
Sequence (P01116 other isoform, or with tags, fused parts or gaps G12V/C118S): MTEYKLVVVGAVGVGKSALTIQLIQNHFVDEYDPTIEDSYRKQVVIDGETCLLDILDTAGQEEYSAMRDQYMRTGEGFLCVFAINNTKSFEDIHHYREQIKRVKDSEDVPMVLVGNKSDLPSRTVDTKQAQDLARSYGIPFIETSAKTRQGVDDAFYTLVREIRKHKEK
pIC50: −log10 of the molar value.
RECORDED_METRIC: pIC50

Take a look at these entries with their results.
- COMPOUND: "C[C@H](Oc1cc(N2CCN(C)C3(COC3)C2)nc(-c2noc3c2CCC[C@@]32CCCc3sc(N)c(C#N)c32)n1)[C@@H]1CCCN1C [II-13]"
  pIC50: 8.52
- COMPOUND: "C[C@H](Oc1cc(N2CCNC3(CC3)C2)nc(-c2onc3c2CCC[C@@]32CCCc3sc(N)c(C#N)c32)n1)[C@@H]1C[C@@H](F)CN1C [I-45]"
  pIC50: 8.10
- COMPOUND: "C[C@H](Oc1cc(-n2ccc(Br)n2)nc(-c2noc3c2CCC[C@@]32CCCc3sc(N)c(C#N)c32)n1)[C@@H]1CCCN1C [II-110]"
  pIC50: 8.52
- COMPOUND: "CO[C@H]1CCN(C)[C@@H]1[C@H](C)Oc1cc(-n2ccc(C(=O)N[C@@H](C)c3ccccn3)n2)nc(-c2noc3c2CCC[C@@]32CCCc3sc(N)c(C#N)c32)n1 [II-196]"
  pIC50: 8.70
- COMPOUND: "C[C@H](Oc1cc(-n2ccc(C(=O)N[C@@H]3CCOC3)n2)nc(-c2noc3c2CCC[C@@]32CCCc3sc(N)c(C#N)c32)n1)[C@@H]1CCCN1C [II-192]"
  pIC50: 9.00
- COMPOUND: "C[C@H](Oc1cc(-c2cncnc2)nc(-c2noc3c2CCC[C@@]32CCCc3sc(N)c(C#N)c32)n1)[C@@H]1CCCN1C [II-82]"
  pIC50: 8.05

a. C[C@H](Oc1cc(-n2ccc(C3(O)COC3)n2)nc(-c2noc3c2CCC[C@@]32CCCc3sc(N)c(C#N)c32)n1)[C@@H]1CCCN1C [II-189]
b. C[C@H](Oc1cc(N2CCNC3(CC3)C2)nc(-c2noc3c2CCC[C@@]32CCCc3sc(N)c(C#N)c32)n1)[C@@H]1C[C@@H](F)CN1C [II-165]
Asked: In terms of reported pIC50, does a or b have the smaller number? Kindly give the label for the entry you pick.
Given back: b
(b: 7.82, a: 8.52)

* * *

Recorded solubility at 24 h values for a group of compounds are listed next.
Assay: Solubility measurement (DMSO solution method), McIlvaine buffer pH 4.5 or 6.8
Assay type: physicochemical
Conditions: aqueous buffer, kinetic from dmso stock; McIlvaine buffer pH 4.5; DMSO stock diluted to 250 μM; 24 h shaking at ambient temperature; read-out: solubility pH 4.5
Protocol: The DMSO solution is diluted with an aqueous medium (Mcllvaine buffer with pH=4.5 or 6.8) to a final concentration of 250 μM. After 24 h of shaking at ambient temperature a potentially formed precipitate is removed by filtration. The concentration of the test compound in the filtrate is determined by LC-UV methods by calibrating the signal to the signal of a reference solution with complete dissolution of the test compound in acetonitrile/water (1:1) with known concentration.

Take a look at these entries with their results.
- COMPOUND: "C[C@H](Oc1cc(-n2cc3c(n2)CNC3)nc(-c2noc3c2CCC[C@@]32CCCc3sc(N)c(C#N)c32)n1)[C@@H]1CCCN1C"
  solubility at 24 h: "> 139 µg/mL"
- COMPOUND: "C[C@H](Oc1cc(N2CCNCC23CCOC3)nc(-c2onc3c2CCC[C@@]32CCCc3sc(N)c(C#N)c32)n1)[C@@H]1CCCN1C (some centres unmarked)"
  solubility at 24 h: "> 141 µg/mL"
- COMPOUND: "C[C@H](Oc1cc(N2CC[C@@H](N(C)C)C2)nc(-c2noc3c2CCC[C@@]32CCCc3sc(N)c(C#N)c32)n1)[C@@H]1CCCN1C"
  solubility at 24 h: "> 162 µg/mL"

# evaluate next
Asked: Reported solubility at 24 h for C[C@H](Oc1cc(-n2cc3ccn([C@@H]4CCOC4)c(=O)c3n2)nc(-c2noc3c2CCC[C@@]32CCCc3sc(N)c(C#N)c32)n1)[C@@H]1CCCN1C : what is it?
Given back: > 159 µg/mL

* * *

target: KRAS (WT)::SOS1 (Homo sapiens (Human), UniProt P01116, C118S); test: KRAS::SOS1 AlphaScreen binding assay, KRAS WT
Sequence (P01116 other isoform, or with tags, fused parts or gaps C118S): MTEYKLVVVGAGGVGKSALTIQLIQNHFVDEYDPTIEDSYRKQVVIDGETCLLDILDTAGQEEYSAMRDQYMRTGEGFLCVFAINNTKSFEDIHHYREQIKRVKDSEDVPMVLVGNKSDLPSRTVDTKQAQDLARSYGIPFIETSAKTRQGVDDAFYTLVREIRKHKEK
RECORDED_METRIC: IC50 (nM)

- SMILES_DATA: "C[C@H](Oc1cc(-c2ccc(N)nc2)nc(-c2noc3c2CCC[C@@]32CCCc3sc(N)c(C#N)c32)n1)[C@@H]1CCCN1C"
  RECORDED_METRIC: "IC50"
  DATA_VALUE: 8
- SMILES_DATA: "CN[C@H]1CCN(c2cc(O[C@@H](C)[C@@H]3CCCN3C)nc(-c3noc4c3CCC[C@@]43CCCc4sc(N)c(C#N)c43)n2)C1"
  RECORDED_METRIC: "IC50"
  DATA_VALUE: 13
- SMILES_DATA: "C[C@H](Oc1cc(N2CC3CCC(C2)N3)nc(-c2noc3c2CCC[C@@]32CCCc3sc(N)c(C#N)c32)n1)[C@@H]1CCCN1C"
  RECORDED_METRIC: "IC50"
  DATA_VALUE: 8
- SMILES_DATA: "C[C@H](Oc1cc(N2CC[C@H](N3CCCCC3)C2)nc(-c2noc3c2CCC[C@@]32CCCc3sc(N)c(C#N)c32)n1)[C@@H]1CCCN1C"
  RECORDED_METRIC: "IC50"
  DATA_VALUE: 15

A. C[C@H](Oc1cc(N2CC[C@H](N3CCCC3)C2)nc(-c2noc3c2CCC[C@@]32CCCc3sc(N)c(C#N)c32)n1)[C@@H]1CCCN1C
B. CNC(=O)c1cn(-c2cc(O[C@@H](C)[C@@H]3CCCN3C)nc(-c3noc4c3CCC[C@@]43CCCc4sc(N)c(C#N)c43)n2)nn1
C. C[C@H](Oc1cc(-n2ccc(Br)n2)nc(-c2noc3c2CCC[C@@]32CCCc3sc(N)c(C#N)c32)n1)[C@@H]1CCCN1C
Asked: Write the entries in order, lowest recorded IC50 first. Answer by naming the labels in the order asked.
Given back: C, B, A
(C: 7 nM, B: 10 nM, A: 15 nM)
